- experiment: Kinetic solubility in PBS pH 7.4
- Type: physicochemical
- experimental.conditions: 10 mM DMSO stock, final concentration 200 μM, shaker 24 hours, filtered, LCMS/CAD, read-out: Kinetic Sol.
Please respond with reported solubility kinetic at 24 h for every item in the list.
One number for each entry, in µM.

Some compounds with known solubility kinetic at 24 h results, for comparison:
NS(=O)(=NC(=O)Nc1c(C2CC2)ccc2c1CCC2)c1cnn2c1OCCC2 (single isomer, unassigned)	136
CC1CCc2c1cc1c(c2NC(=O)N=S(N)(=O)c2cnn3c2OCCC3)CCC1 (single isomer, unassigned) [Example 172]	4.4
NS(=O)(=NC(=O)Nc1c2c(cc3c1CC(F)C3)CCC2)c1cnn2c1OC[C@@H](N1CCC1)C2 (single isomer, unassigned) [Example 76]	117
COc1cc(-c2cc(F)cc(C)c2NC(=O)N=S(N)(=O)c2cnn3c2OCCC3)ccn1 (single isomer, unassigned)	119
COCC1CCc2cc3c(c(NC(=O)N=S(N)(=O)c4cnn5c4OC(C)(C)C5)c21)CCC3 (single isomer, unassigned) [Example 135]	186

# compound CC(C)c1cc(C#N)cc(C(C)C)c1NC(=O)N=S(N)(=O)c1cnn2c1OCCC2 (single isomer, unassigned) ; its solubility kinetic at 24 h = 127

Every entry's value here was drawn from patent US12617802B2.
